Provide the recorded CC50 for the entries that follow.
tested on: MT-4; assay: Antiproliferative assay (MTT); type: cell-based, human; conditions: concentration reducing cell proliferation by 50%, 96 h, mean of three determinations
Numbers only, in µM.

1) O=[N+]([O-])c1cc(NC(=S)Nc2ccc(I)cc2)ccc1Cl = 7.8
2) O=[N+]([O-])c1cc(NC(=S)Nc2ccccc2Br)ccc1Cl = 9.6
3) O=[N+]([O-])c1cc(NC(=S)Nc2ccc(Cl)c(Cl)c2)ccc1Cl = 7.9

Please give CC50, item by item, for the list that follows.
1. Cc1ccc(NC(=S)Nc2ccc(Cl)c([N+](=O)[O-])c2)cc1Cl
2. O=[N+]([O-])c1cc(NC(=S)Nc2ccc(F)cc2)ccc1Cl
3. N#Cc1ccc(NC(=S)Nc2ccc(Cl)c([N+](=O)[O-])c2)cc1
4. O=[N+]([O-])c1cc(NC(=S)Nc2ccc(Br)cc2)ccc1Cl
5. O=[N+]([O-])c1cc(NC(=S)Nc2ccccc2Cl)ccc1Cl
6. Cc1ccc(Cl)cc1NC(=S)Nc1ccc(Cl)c([N+](=O)[O-])c1

Response line:
1: 8; 2: 7; 3: 8.2; 4: 6.6; 5: 8.8; 6: 8.2

Please give CC50, item by item, for the list that follows.
1. CC[C@@]1(O)C(=O)OCc2c1cc1n(c2=O)Cc2cc3ccccc3nc2-1 [Camptotecin, reference compound]
2. O=[N+]([O-])c1cc(NC(=S)Nc2ccc(F)c(Cl)c2)ccc1Cl

Response line:
0.004
7.3

Hey, just so you know, these numbers are from paper PMC6222614.
